B1: HEEH_KT_rd6_0790 (parent)
chain: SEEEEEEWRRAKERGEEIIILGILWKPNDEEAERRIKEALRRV

Variants of: B1
ASSAY_PROCEDURE: folding stability dG (cDNA display proteolysis); higher = more stable
SETTINGS: PBS, room temperature
Decide using folding stability dG: a value greater than or equal to 6 kJ/mol is Satisfied, a smaller one is Not satisfied.

[
  {
    "MUTATION_NAME": "R9G",
    "LABEL": "Not satisfied"
  },
  {
    "MUTATION_NAME": "L24T",
    "LABEL": "Satisfied"
  },
  {
    "MUTATION_NAME": "R35D",
    "LABEL": "Satisfied"
  },
  {
    "MUTATION_NAME": "L24G",
    "LABEL": "Not satisfied"
  },
  {
    "MUTATION_NAME": "L24V",
    "LABEL": "Satisfied"
  },
  {
    "MUTATION_NAME": "L40S",
    "LABEL": "Not satisfied"
  }
]
